Measured TGI, listed per entry for reference.
- System: KM12 colon
- TEST METHOD NOTES: NCI tumour cell line growth inhibition, 48 h

Q: Recorded TGI for OCc1ccc(N2CCc3cccc(F)c3C2)cc1Cl , please?
A: 48.6 µM

Q: Recorded TGI for COC(=O)C1Cc2cc3c(cc2C1=O)CCCC3 (stereo not given) , please?
A: > 100 µM

Q: Recorded TGI for CC(C)(C)OC(=O)NC1CC2(C=C(Br)C(=O)C(Br)=C2)OC1=O (stereo not given) , please?
A: 45.1 µM

Q: Recorded TGI for COc1ccc(NC(=O)CC2SC(=Nc3ccccc3C)NC2=O)c([N+](=O)[O-])c1 (stereo not given) , please?
A: > 100 µM

Q: Recorded TGI for COc1ccc(C2OC(=O)c3ccc4ccccc4c32)c(C)c1 (stereo not given) , please?
A: > 45.6 µM

Q: Recorded TGI for O=c1cc(CO)oc2c3c(cc(O)c12)OCC(COC1OC(CO)C(O)C(O)C1O)=CC3 (stereo not given) , please?
A: > 100 µM
